# Procedure text: Solubility in water
# Format: physicochemical
# Test settings: deionized water, pH 7.4, aqueous buffer, thermodynamic from solid, water, pH adjusted to 7.2-7.6, filtrate analysed by HPLC; read-out: Maximal solubility pH 7.4
Value kind: solubility (mg/mL)
Quick reminder: number only, in mg/mL, skip the unit.

Task item: # solubility lookup, item COc1ccccc1-c1ccc(C(=O)N2[C@@H](c3ccccc3Cl)CC[C@H]2C(=O)[O-])cc1.[Na+]
Reply: 129

---

# Procedure text: Solubility in water
# Type: physicochemical
# Test settings: deionized water, pH 7.4, aqueous buffer, thermodynamic from solid, water; read-out: Aqueous solubility (confirmed)
Value kind: solubility

Task item: I have this molecule here, COc1ccccc1-c1ccc(C(=O)N2[C@@H](c3ccccc3Cl)CC[C@H]2C(=O)[O-])cc1.[Na+] [1·Na] , and I need its recorded solubility.
Reply: ~130 mg/mL
